All values here come from patent US10385072B2.

# System: WT-p53 A2780 ovarian cancer cells (CRISPR Control)
# Assay Name: MTT assay, A2780 transfected with CRISPR control plasmid
# Format: cell-based, human
# Condition Info: A2780 clone with control plasmid
pIC50: −log10 of the molar value.

{"Molecule Smiles": "CN(C)C(=S)[S][Au+2].Cc1ccc(-c2ccc(C)cn2)nc1.[Cl-].[Cl-]", "pIC50": 7.06}

---

# Test system: PC3 cells
# Assay Name: Cell proliferation assay (MTT/MTS), PC3
# Type: cell-based, human
# Condition Info: 72-120 h, MTT or MTS, mean±SEM
pIC50: −log10 of the molar value.
Assay Endpoint: pIC50

{"Molecule": "CN(C)C(=S)[S][Au+2].Cc1ccc(-c2ccc(C)cn2)nc1.[Cl-].[Cl-] [Compound 4]", "Assay Endpoint": "pIC50", "Observed Result": 6.23}
